test: Kinetic solubility of the compound in pH 7.4 PBS by nephelometric method; assay type: physicochemical; settings: read-out: Kinetic_solubility
MEASURED_ATTRIBUTE: solubility kinetic (µM)
Answer in µM, number only, no unit symbol.

Identify the reported solubility kinetic for the following entry. `Cc1ccc2oc(-c3c4c(N)n[nH]c(=O)c4nn3-c3ccc(NC(=O)/C=C/CN4CCOCC4)cc3)c(C)c2c1`
50

Identify the reported solubility kinetic for the following entry. `C=CC(=O)Nc1ccc(-n2nc3c(=O)[nH]nc(N)c3c2-c2oc3ccc(C)cc3c2C)cc1`
20

Identify the reported solubility kinetic for the following entry. `CC(=O)c1cc(Br)ccc1O`
50

Identify the reported solubility kinetic for the following entry. `Cc1c(-c2c3c(N)n[nH]c(=O)c3nn2-c2ccc(NC(=O)/C=C/CN(C)C)cc2)oc2ccc(Cl)cc12`
200
